# Tested on: 616215-338-R-J1-PDC complex spheroid viability
# runDescription: Anticancer human tumor 616215-338-R-J1-PDC patient-derived colon adenocarcinoma cell line growth inhibition [POLQ]
# runParameters: second compound 10 µM; first compound 0.000316 µM; active compounds read low
outcomeMeasure: viability, T/C (%)
Numbers only, in %.

The measured viability, T/C associated with CC[C@@]1(O)C(=O)OCc2c1cc1n(c2=O)Cc2cc3c(CN(C)C)c(O)ccc3nc2-1 + Cc1cccc(N(C)C(=O)C2C(O)CCN2c2nc(C)cc(C(F)(F)F)c2C#N)c1 reads 100

The measured viability, T/C associated with CC[C@@]1(O)C(=O)OCc2c1cc1n(c2=O)Cc2cc3c(CN(C)C)c(O)ccc3nc2-1 + Nc1ccc(C#CCN(C(=O)Cc2ncc(C(F)(F)F)cc2C(F)(F)F)c2ccc(F)cc2)nn1 reads 85.5

The measured viability, T/C associated with Cn1ncnc1[C@H]1c2n[nH]c(=O)c3cc(F)cc(c23)N[C@@H]1c1ccc(F)cc1 + COC1C(OC(N)=O)C(O)C(Oc2ccc3c(O)c(NC(=O)c4ccc(O)c(CC=C(C)C)c4)c(=O)oc3c2C)OC1(C)C reads 105

The measured viability, T/C associated with CC[C@@]1(O)C(=O)OCc2c1cc1n(c2=O)Cc2cc3c(CN(C)C)c(O)ccc3nc2-1 + COC1C(OC(N)=O)C(O)C(Oc2ccc3c(O)c(NC(=O)c4ccc(O)c(CC=C(C)C)c4)c(=O)oc3c2C)OC1(C)C reads 106

The measured viability, T/C associated with Cn1ncnc1[C@H]1c2n[nH]c(=O)c3cc(F)cc(c23)N[C@@H]1c1ccc(F)cc1 + Cc1cccc(N(C)C(=O)C2C(O)CCN2c2nc(C)cc(C(F)(F)F)c2C#N)c1 reads 106

Pending compound:
The measured viability, T/C associated with Cn1ncnc1[C@H]1c2n[nH]c(=O)c3cc(F)cc(c23)N[C@@H]1c1ccc(F)cc1 + Nc1ccc(C#CCN(C(=O)Cc2ncc(C(F)(F)F)cc2C(F)(F)F)c2ccc(F)cc2)nn1 reads 94.8

* * *

# System: 616215-338-R-J1-PDC complex spheroid viability
# runDescription: Anticancer human tumor 616215-338-R-J1-PDC cell line growth inhibition [POLQ];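 further: spheroids exposed to compounds for one week before readout; percent viability relative to DMSO vehicle wells taken as 100%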
# runParameters: second compound 1 µM; first compound 0.316 µM; active compounds read low
outcomeMeasure: viability, T/C (%)
Numbers only, in %.

I would be grateful if you could provide viability, T/C for each of the following entries.
1. CCc1cc2c(N3CCc4c(cc(Cn5ccnc5)cc4-c4cn(C)nc4C(F)(F)F)C3=O)ccnc2c(OC)n1 + Cc1cccc(N(C)C(=O)C2C(O)CCN2c2nc(C)cc(C(F)(F)F)c2C#N)c1
2. CC1COCCN1c1cc(C2(S(C)(=N)=O)CC2)nc(-c2ccnc3[nH]ccc23)n1 (stereo not given) + Cc1cccc(N(C)C(=O)C2C(O)CCN2c2nc(C)cc(C(F)(F)F)c2C#N)c1
3. C=CCn1c(=O)c2cnc(Nc3ccc(N4CCN(C)CC4)cc3)nc2n1-c1cccc(C(C)(C)O)n1 + COC1C(OC(N)=O)C(O)C(Oc2ccc3c(O)c(NC(=O)c4ccc(O)c(CC=C(C)C)c4)c(=O)oc3c2C)OC1(C)C
4. C=CC(=O)N1CCN(c2nc(=O)n(-c3c(C)ccnc3C(C)C)c3nc(-c4c(O)cccc4F)c(F)cc23)C(C)C1 (stereo not given) + Cc1cccc(N(C)C(=O)C2C(O)CCN2c2nc(C)cc(C(F)(F)F)c2C#N)c1
5. Nc1ccn(C2OC(CO)C(O)C2(F)F)c(=O)n1 (stereo not given) + Nc1ccc(C#CCN(C(=O)Cc2ncc(C(F)(F)F)cc2C(F)(F)F)c2ccc(F)cc2)nn1

Result:
1. 88.4
2. 98.2
3. 90.7
4. 88.1
5. 11.2

* * *

# System: 616215-338-R-J1-PDC complex spheroid viability
# runDescription: Anticancer human tumor 616215-338-R-J1-PDC cell line growth inhibition [POLQ];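 further: spheroids exposed to compounds for one week before readout; percent viability relative to DMSO vehicle wells taken as 100%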
# runParameters: second compound 0.0316 µM; first compound 3.16 µM; active compounds read low
outcomeMeasure: viability, T/C (%)
One number for each entry, in %.

The following compounds have reported results that may help.
The recorded viability, T/C with 616215-338-R-J1-PDC complex spheroid viability for COc1cc2cc(C(=O)CCC(=O)O)sc2cc1OC + Cc1cccc(N(C)C(=O)C2C(O)CCN2c2nc(C)cc(C(F)(F)F)c2C#N)c1 was 117

The recorded viability, T/C with 616215-338-R-J1-PDC complex spheroid viability for COc1cccc2c1C(=O)c1c(O)c3c(c(O)c1C2=O)CC(O)(C(=O)CO)CC3OC1CC(N)C(O)C(C)O1 (stereo unspecified) + COC1C(OC(N)=O)C(O)C(Oc2ccc3c(O)c(NC(=O)c4ccc(O)c(CC=C(C)C)c4)c(=O)oc3c2C)OC1(C)C was 8.11

The recorded viability, T/C with 616215-338-R-J1-PDC complex spheroid viability for COc1ccc([C@@H](O)c2cc(-c3ncnc4cc(N5CCOCC5)ccc34)c(F)cc2Cl)nn1 + Cc1cccc(N(C)C(=O)C2C(O)CCN2c2nc(C)cc(C(F)(F)F)c2C#N)c1 was 101

I would be grateful if you could provide viability, T/C for each of the following entries.
1. CCCS(=O)(=O)Nc1ccc(F)c(C(=O)c2c[nH]c3ncc(-c4ccc(Cl)cc4)cc23)c1F + COC1C(OC(N)=O)C(O)C(Oc2ccc3c(O)c(NC(=O)c4ccc(O)c(CC=C(C)C)c4)c(=O)oc3c2C)OC1(C)C
2. Nc1ccn(C2OC(CO)C(O)C2(F)F)c(=O)n1 (stereo unspecified) + COC1C(OC(N)=O)C(O)C(Oc2ccc3c(O)c(NC(=O)c4ccc(O)c(CC=C(C)C)c4)c(=O)oc3c2C)OC1(C)C
3. Nc1ccn(C2OC(CO)C(O)C2(F)F)c(=O)n1 (stereo unspecified) + Nc1ccc(C#CCN(C(=O)Cc2ncc(C(F)(F)F)cc2C(F)(F)F)c2ccc(F)cc2)nn1

Result:
1. 97.1
2. 34
3. 14.9

I would be grateful if you could provide viability, T/C for each of the following entries.
1. CCc1cc2c(N3CCc4c(cc(Cn5ccnc5)cc4-c4cn(C)nc4C(F)(F)F)C3=O)ccnc2c(OC)n1 + COC1C(OC(N)=O)C(O)C(Oc2ccc3c(O)c(NC(=O)c4ccc(O)c(CC=C(C)C)c4)c(=O)oc3c2C)OC1(C)C
2. CC1COCCN1c1cc(C2(O)CC3CCC(C2)O3)c2cnn(-c3ccn[nH]3)c2n1 (stereo unspecified) + COC1C(OC(N)=O)C(O)C(Oc2ccc3c(O)c(NC(=O)c4ccc(O)c(CC=C(C)C)c4)c(=O)oc3c2C)OC1(C)C
3. CNCc1ccc(-c2[nH]c3cc(F)cc4c3c2CCNC4=O)cc1 + Nc1ccc(C#CCN(C(=O)Cc2ncc(C(F)(F)F)cc2C(F)(F)F)c2ccc(F)cc2)nn1

Result:
80
39.5
104

I would be grateful if you could provide viability, T/C for each of the following entries.
1. C=CC(=O)N1CCN(c2nc(=O)n(-c3c(C)ccnc3C(C)C)c3nc(-c4c(O)cccc4F)c(F)cc23)C(C)C1 (stereo unspecified) + Cc1cccc(N(C)C(=O)C2C(O)CCN2c2nc(C)cc(C(F)(F)F)c2C#N)c1
2. Nc1ccn(C2OC(CO)C(O)C2(F)F)c(=O)n1 (stereo unspecified) + Cc1cccc(N(C)C(=O)C2C(O)CCN2c2nc(C)cc(C(F)(F)F)c2C#N)c1
3. O=C(c1cc(Cc2n[nH]c(=O)c3ccccc23)ccc1F)N1CCN(C(=O)C2CC2)CC1 + Cc1cccc(N(C)C(=O)C2C(O)CCN2c2nc(C)cc(C(F)(F)F)c2C#N)c1
4. C#Cc1c(F)ccc2cc(O)cc(-c3ncc4c(N5CC6CCC(C5)N6)nc(OCC56CCCN5CC(F)C6)nc4c3F)c12 (stereo unspecified) + Cc1cccc(N(C)C(=O)C2C(O)CCN2c2nc(C)cc(C(F)(F)F)c2C#N)c1
5. CC1COCCN1c1cc(C2(S(C)(=N)=O)CC2)nc(-c2ccnc3[nH]ccc23)n1 (stereo unspecified) + Nc1ccc(C#CCN(C(=O)Cc2ncc(C(F)(F)F)cc2C(F)(F)F)c2ccc(F)cc2)nn1
6. COc1cc(C2c3cc4c(cc3C(OC3OC5COC(C)OC5C(O)C3O)C3COC(=O)C23)OCO4)cc(OC)c1O (stereo unspecified) + Cc1cccc(N(C)C(=O)C2C(O)CCN2c2nc(C)cc(C(F)(F)F)c2C#N)c1
7. C#Cc1c(F)ccc2cc(O)cc(-c3ncc4c(N5CC6CCC(C5)N6)nc(OCC56CCCN5CC(F)C6)nc4c3F)c12 (stereo unspecified) + Nc1ccc(C#CCN(C(=O)Cc2ncc(C(F)(F)F)cc2C(F)(F)F)c2ccc(F)cc2)nn1
8. CCc1cc2c(N3CCc4c(cc(Cn5ccnc5)cc4-c4cn(C)nc4C(F)(F)F)C3=O)cc(C)nc2c(OC)n1 + Cc1cccc(N(C)C(=O)C2C(O)CCN2c2nc(C)cc(C(F)(F)F)c2C#N)c1

Result:
[100, 29.6, 103, 113, 56.9, 70.9, 62.5, 46.4]
